System Under Test: 5HTR2B (Homo sapiens, UniProt P41595)
Sequence (P41595 whole entry): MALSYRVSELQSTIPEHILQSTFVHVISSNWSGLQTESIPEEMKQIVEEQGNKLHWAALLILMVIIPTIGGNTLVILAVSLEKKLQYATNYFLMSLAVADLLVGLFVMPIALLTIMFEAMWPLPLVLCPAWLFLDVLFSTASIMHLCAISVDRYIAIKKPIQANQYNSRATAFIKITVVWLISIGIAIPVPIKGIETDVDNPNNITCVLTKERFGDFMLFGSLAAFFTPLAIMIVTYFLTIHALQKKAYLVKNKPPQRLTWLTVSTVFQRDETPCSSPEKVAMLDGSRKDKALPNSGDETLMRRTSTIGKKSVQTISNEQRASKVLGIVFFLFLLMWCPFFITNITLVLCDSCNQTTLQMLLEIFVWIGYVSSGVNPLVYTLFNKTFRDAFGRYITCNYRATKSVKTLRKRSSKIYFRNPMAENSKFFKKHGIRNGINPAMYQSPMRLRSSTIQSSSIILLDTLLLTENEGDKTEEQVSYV
Experiment Description: 5HTR2B antagonist activity, calcium mobilization assay in human Maverick/293 cells (serotonin as agonist)
Measurement Setup: intracellular calcium, emission 525 nm, read-out: Ca assay IC50
Property Name: pIC50
Answer as the number alone; pIC50 is minus log10 of concentration in mol/L.

For 5HTR2B (Homo sapiens, UniProt P41595), give pIC50 of the listed compound: `CCNS(=O)(=O)c1ccc(OC)c(C(=O)Nc2ccc(F)c(C)n2)c1`
8.89

Provide the reported pIC50 (system: 5HTR2B (Homo sapiens, UniProt P41595)) for COc1ccc(S(=O)(=O)N[C@H]2CCN(C)C2=O)cc1C(=O)Nc1ccccc1Cl (single isomer, unassigned) [Compound 54a]
8.96

# return pIC50 of COc1ccc(S(=O)(=O)NC2CCC[C@@H]2O)cc1C(=O)Nc1ccccc1Cl (some centres unmarked) [Compound 61b] (system: 5HTR2B (Homo sapiens, UniProt P41595))
9.70

# assay system 5HTR2B (Homo sapiens, UniProt P41595): give pIC50 of COCC(C)NS(=O)(=O)c1ccc(OC)c(C(=O)Nc2ccc(F)c(C(F)F)c2)c1 (single isomer, unassigned) [Compound 32b]
8.07

Provide 5HTR2B (Homo sapiens, UniProt P41595) pIC50 reading for `COc1ccc(S(=O)(=O)NC2CCN(C)CC2)cc1C(=O)Nc1ccc(F)c(C)n1` .
6.76

Enter recorded pIC50 with 5HTR2B (Homo sapiens, UniProt P41595) for `COc1ccc(S(=O)(=O)N[C@H]2CCOC2)cc1C(=O)Nc1c(F)cccc1Cl` here.
8.08

Jot down pIC50 (5HTR2B (Homo sapiens, UniProt P41595)) of `COc1ccc(S(N)(=O)=O)cc1C(=O)Nc1ccc(F)cc1F` .
6.79

Name the recorded pIC50 of COc1ccc(S(=O)(=O)N[C@H](C)C(N)=O)cc1C(=O)Nc1ccc(F)c(C(F)F)c1 [Compound 34b] , assay system 5HTR2B (Homo sapiens, UniProt P41595).
6.78

Give pIC50; test system 5HTR2B (Homo sapiens, UniProt P41595); compound `COc1ccc(S(=O)(=O)N[C@H]2CCOC2)cc1C(=O)Nc1cc(F)c(C#N)cc1F`
7.43

# assay system 5HTR2B (Homo sapiens, UniProt P41595): give pIC50 of `Cc1nc(NC(=O)c2cc(S(=O)(=O)N[C@H]3CCOC3)ccc2OC(C)C)ccc1F`
8.28

Print 5HTR2B (Homo sapiens, UniProt P41595) pIC50 for `COc1ccc(S(=O)(=O)N[C@H]2CCOC2)cc1C(=O)Nc1ccc(C#N)c(F)c1` .
5.87

State the measured pIC50 (5HTR2B (Homo sapiens, UniProt P41595)) of COC[C@@H](C)NS(=O)(=O)c1ccc(OC)c(C(=O)Nc2ccc(F)cc2)c1 (single isomer, unassigned) [Compound 40b]
8.02

For 5HTR2B (Homo sapiens, UniProt P41595), give the measured pIC50 of the entry `COc1ccc(S(=O)(=O)N[C@H]2CCOC2)cc1C(=O)Nc1ccccc1C`
9.05

// output pIC50; input COc1ccc(S(=O)(=O)N[C@H]2CCOC2)cc1C(=O)Nc1ccc(F)cc1 [Compound 158] ; system 5HTR2B (Homo sapiens, UniProt P41595)
9.77

Just for reference, patent US10654837B2 is where these values come from.
